Tested on: Aspergillus niger
procedure-text: Antifungal activity against Aspergillus niger ATCC 9029 after 48 hrs by broth microdilution technique
Type: functional
run-conditions: ATCC 9029, 48 h
Task for the reader: assign each of the following molecules its reported MIC.
Answers are plain numbers, in µg/mL.

Recorded results for 3 molecules are shown here.
{"molecule": "Fc1ccc2nc(-c3cccnc3)ccc2c1", "target-desc": "Aspergillus niger", "test-result": 250}
{"molecule": "CC(=O)N1CCN(c2ccc(OCC3COC(Cn4ccnc4)(c4ccc(Cl)cc4Cl)O3)cc2)CC1 (centres undefined) [KETOCONAZOLE]", "target-desc": "Aspergillus niger", "test-result": 0.25}
{"molecule": "Clc1ccc2nc(/C=C/c3ccncc3)ccc2c1", "target-desc": "Aspergillus niger", "test-result": 250}

Batch lookup, MIC per entry.
1. Cc1ccc2nc(-c3ccncc3)ccc2c1
2. C[C@@H]1[C@H](O)[C@@H](C)/C=C/C=C/C=C/C=C/C=C/C=C/C=C/[C@H](O[C@@H]2O[C@H](C)[C@@H](O)[C@H](N)[C@@H]2O)C[C@@H]2O[C@](O)(C[C@@H](O)C[C@@H](O)[C@H](O)CC[C@@H](O)C[C@@H](O)CC(=O)O[C@H]1C)C[C@H](O)[C@H]2C(=O)O [AMPHOTERICIN B]

Result:
1. 125
2. 0.49

Batch lookup, MIC per entry.
1. CCc1ccc2nc(-c3ccccn3)ccc2c1
2. C(=C\c1ccc2ccccc2n1)/c1ccncc1

Result:
250
125

Numbers sourced from ChEMBL document CHEMBL2157922.
